Test system: HCT-116 colon
protocol notes: NCI-60 one-dose screen, 48 h
condition details: 10 µM unless noted
This is part of a sample that, as a whole, favours compounds with a hit. Of some 83,000 tested, about 20% had one in any assay. The source made the active and inactive calls. The calls were made as follows: active = growth percent below 10; inactive = the rest.
Valid outcomes are listed here; reply with one: active, inactive

# count of solved cases: 5
{"columns": ["molecule", "label value"],
 "data": [
  ["CN(C)CCN(C)CC(C)(C)C(=O)/C=C/c1ccc(Cl)c(Cl)c1", "active"],
  ["CN(C)c1ccc(/C=C/c2sc3ccc4ccccc4c3[n+]2C)cc1", "active"],
  ["COc1cc2c(c(OC)c1OC)-c1ccc(NCc3ccccc3)c(=O)cc1[C@@H](NC(C)=O)CC2", "active"],
  ["CCCCCC[C@@H](O)C/C=C\\CCCCCCCC(=O)OCCOC", "inactive"],
  ["CN1CCC(c2ccccc2)(c2ccccc2)C(=O)C1", "inactive"]
]}

Outcome logged for CC(C)Nc1ccc(Nc2ccc(NC(C)C)cc2)cc1 in this assay:
inactive

Input CCCCCCCCCCCCCCCC[N+]1(C)CCCC1c1cccnc1 (configuration not stated)
inactive

Proceed to CC(=O)OC1CC2CCC1(C)C2(C)C (configuration not stated)
inactive

Repeat for the following molecule: Cn1c(-c2ccccc2)c(/C=C/C2=[N+](C)c3ccccc3C2(C)C)c2ccccc21
active

Try the molecule CC1=CC(=NC(=O)CBr)C=C/C1=N\S(=O)(=O)c1ccccc1
inactive

Let us now turn to CC(/C=N/NC(N)=S)Cc1ccc(C(C)C)cc1 (configuration not stated)
inactive

Please give the result for NNc1ccc(Cl)cc1Cl too.
inactive

Try COc1cc(/C=C/c2ccnc3ccccc23)cc(OC)c1OC next.
inactive

Request: COc1cc(-c2ccc(-[n+]3nc(-c4ccc([N+](=O)[O-])cc4)nn3-c3ccc([N+](=O)[O-])cc3)c(OC)c2)ccc1-[n+]1nc(-c2ccc([N+](=O)[O-])cc2)nn1-c1ccc([N+](=O)[O-])cc1
active
